Hello, the source for this data is paper PMC7808739, in case you need it.

molecular target: UniProt:P0DTD1; assay: biochemical; assay type: biochemical; conditions: IC50, inhibition of SARS-CoV-2 3CLpro activity
Where a name gives a salt, the structure may show the parent alone.
Binary call on IC50 with cut-off 10 µM: strictly below means Yes, and equality or higher means No.

Lookup: Identify whether the molecule N[C@@H]1C[C@H]1c1ccccc1 [Tranylcypromine hydrochloride] records IC50 below 10 µM.
Found: Yes

Lookup: Identify whether the molecule CC(=O)Oc1ccc(C(c2ccc(OC(C)=O)cc2)c2ccccn2)cc1 records IC50 below 10 µM.
Found: No

Lookup: Identify whether the molecule O=C(O)COCCN1CCN(C(c2ccccc2)c2ccc(Cl)cc2)CC1 (stereo not drawn) records IC50 below 10 µM.
Found: No

Lookup: Identify whether the molecule COCC1=C(C(=O)OC(C)OC(=O)OC(C)C)N2C(=O)[C@@H](NC(=O)/C(=N\OC)c3csc(N)n3)[C@H]2SC1 (stereo partly drawn) records IC50 below 10 µM.
Found: No

Lookup: Identify whether the molecule CC(C)C[C@H](NC(=O)[C@@H](COC(C)(C)C)NC(=O)[C@H](Cc1ccc(O)cc1)NC(=O)[C@H](CO)NC(=O)[C@H](Cc1c[nH]c2ccccc12)NC(=O)[C@H](Cc1cnc[nH]1)NC(=O)[C@@H]1CCC(=O)N1)C(=O)N[C@@H](CCCNC(=N)N)C(=O)N1CCC[C@H]1C(=O)NNC(N)=O [Goserelin acetate] records IC50 below 10 µM.
Found: No

Lookup: Identify whether the molecule CN(Cc1ccc(C(C)(C)C)cc1)Cc1cccc2ccccc12 [Butenafine hydrochloride] records IC50 below 10 µM.
Found: Yes

Lookup: Identify whether the molecule Oc1ncnc2[nH]ncc12 records IC50 below 10 µM.
Found: Yes

Lookup: Identify whether the molecule COc1ccc2cc([C@H](C)C(=O)O)ccc2c1 records IC50 below 10 µM.
Found: Yes

###

So I've got a bunch of molecules here, and I need their pIC50 values.
target: SARS-CoV-2 3CLpro (Severe acute respiratory syndrome coronavirus 2, UniProt P0DTD1); assay: biochemical; format: biochemical; details: 0.25 µM protease, 1.25 µM IQF peptide substrate, drugs 0–100 µM preincubated 1 h at 37 °C, then 3 h; N = 3, mean ± SEM; read-out: IC50, inhibition of SARS-CoV-2 3CLpro activity
Where a name gives a salt, the structure may show the parent alone.
Kindly note that pIC50 refers to -log10 of the concentration in mol/L and answer with the value alone.

Entry O=C(c1ccc(OCCN2CCCCC2)cc1)c1c(-c2ccc(O)cc2)sc2cc(O)ccc12 [Raloxifene hydrochloride] , pIC50 reported as 5.25

Entry CCCCCCCCCCCCCCCC(=O)O[C@@H]1[C@@H](O)[C@@H](O)[C@@H]([C@H](NC(=O)[C@@H]2C[C@@H](CCC)CN2C)[C@H](C)Cl)O[C@@H]1SC.Cl [Clindamycin palmitate hydrochloride] , pIC50 reported as 4.48

Entry C=C(c1ccc(C(=O)O)cc1)c1cc2c(cc1C)C(C)(C)CCC2(C)C , pIC50 reported as 4.58

Entry CO[C@H]1C[C@@H]2CC[C@@H](C)[C@@](O)(O2)C(=O)C(=O)N2CCCC[C@H]2C(=O)O[C@H]([C@H](C)C[C@@H]2CC[C@@H](O)[C@H](OC)C2)CC(=O)[C@H](C)/C=C(\C)[C@@H](O)[C@@H](OC)C(=O)[C@H](C)C[C@H](C)/C=C/C=C/C=C/1C [Sirolimus (Rapamycin), Sirolimus] , pIC50 reported as 4.65

Entry NC(=O)C[S@@+]([O-])C(c1ccccc1)c1ccccc1 , pIC50 reported as 4.75

###

So I've got a bunch of molecules here, and I need their IC50 values.
biological target: SARS-CoV-2 3CLpro (Severe acute respiratory syndrome coronavirus 2, UniProt P0DTD1); test: biochemical; assay type: biochemical; settings: 0.25 µM protease, 1.25 µM IQF peptide substrate, drugs 0–100 µM preincubated 1 h at 37 °C, then 3 h; N = 3, mean ± SEM; read-out: IC50, inhibition of SARS-CoV-2 3CLpro activity
Dear colleague, please return just the value in µM, with no unit written.

Entry CCC(=O)O[C@]1(C(=O)CCl)[C@@H](C)C[C@H]2[C@@H]3CCC4=CC(=O)C=C[C@]4(C)[C@@]3(F)[C@@H](O)C[C@@]21C [Clobetasol propionate] , IC50 reported as 18.1

Entry C=C(CC)C(=O)c1ccc(OCC(=O)O)c(Cl)c1Cl , IC50 reported as 1.11

Entry C=CC[N+]1([C@H]2C[C@H]3[C@@H]4CC[C@H]5C[C@H](O)[C@@H](N6CCOCC6)C[C@]5(C)[C@H]4CC[C@]3(C)[C@H]2OC(C)=O)CCCC1 [Rocuronium bromide] , IC50 reported as 17.5
